- System: ATP;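 also: ATP exposure 15 min at 22 °C before imaging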
- assayNotes: switch fluorescence ratio, 500 uM ATP over buffer (Cy3 cluster intensity, sum of 5 cycles each) (fold (ratio)); higher = stronger signal-on switching upon ATP binding; sequences stand for … in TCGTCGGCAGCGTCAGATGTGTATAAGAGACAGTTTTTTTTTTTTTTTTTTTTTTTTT…TC
- cond: aptamer strand: ATP DNA aptamer (quencher-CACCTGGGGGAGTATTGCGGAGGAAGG + anchor), 100 nM annealed; ATP concentration: 500 uM
measuredMetric: switch fluorescence ratio
Numbers only.

residuesequence=TTGATCTGGT recordedmeasurement=1.01
residuesequence=GGGGTATCGA recordedmeasurement=0.998
residuesequence=AAAGGGTCAG recordedmeasurement=0.996
residuesequence=AAGTTAGGGG recordedmeasurement=0.976

Would you mind listing switch fluorescence ratio for each of the following sequences?
1. GCTGGAGGTC
2. GATGTAACAA
3. TGAGTGTGAG
4. TATATGGCGG
5. CGGTTTTTGC
6. CAATCTACGC
7. ACGGCTTTCG
8. TGTTGGGACT

1. 1.01
2. 0.998
3. 0.985
4. 0.972
5. 1.03
6. 1.11
7. 1.05
8. 1.17

* * *

- Tested on: ATP;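 also: ATP exposure 15 min at 22 °C before imaging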
- assayNotes: switch fluorescence ratio, 500 uM ATP over buffer (Cy3 cluster intensity, sum of 5 cycles each) (fold (ratio)); higher = stronger signal-on switching upon ATP binding; sequences stand for … in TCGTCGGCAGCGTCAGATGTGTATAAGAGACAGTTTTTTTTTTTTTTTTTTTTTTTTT…TC
- cond: aptamer strand: ATP DNA aptamer (quencher-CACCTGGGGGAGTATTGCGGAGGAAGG + anchor), 100 nM annealed; ATP concentration: 500 uM
Kind request: treat 1 as inclusive, so switch fluorescence ratio at 1 or higher is True, anything lower is False.

residuesequence=CGATGAGGTA labelclass=False

Decide: is the reported value of switch fluorescence ratio for `GCCTTAGCTC` equal to or greater than 1?
True

* * *

- System: ATP;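 also: ATP exposure 15 min at 22 °C before imaging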
- assayNotes: switch fluorescence ratio, 500 uM ATP over buffer (Cy3 cluster intensity, sum of 5 cycles each) (fold (ratio)); higher = stronger signal-on switching upon ATP binding; sequences stand for … in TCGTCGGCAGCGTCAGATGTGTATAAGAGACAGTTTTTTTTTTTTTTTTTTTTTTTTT…TC
- cond: aptamer strand: ATP DNA aptamer (quencher-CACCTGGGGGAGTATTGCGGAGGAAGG + anchor), 100 nM annealed; ATP concentration: 500 uM
measuredMetric: switch fluorescence ratio
One number for each entry.

Here is how some sequences turned out for switch fluorescence ratio.
residuesequence=GAGATGAAAC measuredmetric="switch fluorescence ratio" recordedmeasurement=0.976
residuesequence=GGCTTAAAAA measuredmetric="switch fluorescence ratio" recordedmeasurement=0.982
residuesequence=CTTCTGGGGC measuredmetric="switch fluorescence ratio" recordedmeasurement=1.04
residuesequence=TGATAAAGTT measuredmetric="switch fluorescence ratio" recordedmeasurement=1.03
residuesequence=GGTTCTTAGT measuredmetric="switch fluorescence ratio" recordedmeasurement=0.978
residuesequence=GACGGTTTAC measuredmetric="switch fluorescence ratio" recordedmeasurement=1.65
residuesequence=AGAGAAGGTC measuredmetric="switch fluorescence ratio" recordedmeasurement=1.02
residuesequence=CTTCCTGCCA measuredmetric="switch fluorescence ratio" recordedmeasurement=2.69
residuesequence=GGTGACTGAG measuredmetric="switch fluorescence ratio" recordedmeasurement=1.01
residuesequence=TTGAGGATGT measuredmetric="switch fluorescence ratio" recordedmeasurement=1

Please look at the items below and tell me switch fluorescence ratio for each one, in order.
1. CCTAAAAAGG
2. TATTAATTGG

1.26
0.993

* * *

- Tested on: ATP;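 also: ATP exposure 15 min at 22 °C before imaging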
- assayNotes: switch fluorescence ratio, 500 uM ATP over buffer (Cy3 cluster intensity, sum of 5 cycles each) (fold (ratio)); higher = stronger signal-on switching upon ATP binding; sequences stand for … in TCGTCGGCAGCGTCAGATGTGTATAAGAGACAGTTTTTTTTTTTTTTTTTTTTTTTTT…TC
- cond: aptamer strand: ATP DNA aptamer (quencher-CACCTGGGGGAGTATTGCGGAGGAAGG + anchor), 100 nM annealed; ATP concentration: 500 uM
measuredMetric: switch fluorescence ratio
Answers are plain numbers.

residuesequence=GAGGTTGTAC recordedmeasurement=1.02
residuesequence=ATTTTGTTTT recordedmeasurement=1.01
residuesequence=TTCATGGATA recordedmeasurement=0.999
residuesequence=AAGGCGCGGG recordedmeasurement=0.989
residuesequence=TGGTACACGT recordedmeasurement=0.989
residuesequence=CAGCGTATCA recordedmeasurement=1.01
residuesequence=TAGGTGGTTT recordedmeasurement=0.989
residuesequence=TTAAGGGGCT recordedmeasurement=1.01

Hi, could you look up switch fluorescence ratio for each item in my list?
1. GGCTGTATTT
2. TTTTCAGAGT
3. AAAATGTTTC
4. ACAATGGATG

1: 0.997; 2: 1; 3: 1.02; 4: 0.994

I need switch fluorescence ratio for every entry listed below, if you could help.
1. AGGAGCTGCG
2. TTAGTATTGG
3. ATAATGGGCG
4. GGAGAATATT

1. 0.998
2. 1.02
3. 0.995
4. 1.02

Report switch fluorescence ratio for every entry below.
1. TTGTTCAGGG
2. ATTTGAGGTA

0.99
1.01

Look up switch fluorescence ratio of `AATGGGGTTA` and report it.
0.997

* * *

- Test system: ATP;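 also: ATP exposure 15 min at 22 °C before imaging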
- assayNotes: switch fluorescence ratio, 500 uM ATP over buffer (Cy3 cluster intensity, sum of 5 cycles each) (fold (ratio)); higher = stronger signal-on switching upon ATP binding; sequences stand for … in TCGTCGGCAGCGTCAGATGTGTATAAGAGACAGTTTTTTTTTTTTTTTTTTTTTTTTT…TC
- cond: aptamer strand: ATP DNA aptamer (quencher-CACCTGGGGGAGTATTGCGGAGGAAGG + anchor), 100 nM annealed; ATP concentration: 500 uM
measuredMetric: switch fluorescence ratio
Numbers only.

Known switch fluorescence ratio results, listed for orientation:
residuesequence=GGGGGATGAT measuredmetric="switch fluorescence ratio" recordedmeasurement=0.989
residuesequence=TGTCGGAAAG measuredmetric="switch fluorescence ratio" recordedmeasurement=0.985
residuesequence=GTTACTTGCT measuredmetric="switch fluorescence ratio" recordedmeasurement=1.01
residuesequence=AGTGTGGGTA measuredmetric="switch fluorescence ratio" recordedmeasurement=0.99
residuesequence=TTTTTGAGTA measuredmetric="switch fluorescence ratio" recordedmeasurement=1.02
residuesequence=AAGTAATTTC measuredmetric="switch fluorescence ratio" recordedmeasurement=1.02
residuesequence=TAAGGGGAGC measuredmetric="switch fluorescence ratio" recordedmeasurement=1.01
residuesequence=CTTCAGGTTG measuredmetric="switch fluorescence ratio" recordedmeasurement=1.02

// each listed sequence needs a value for switch fluorescence ratio
1. TGGGGTATTG
2. ATCAGGGCGG
3. GGTGATAATG
4. CATGTATAGG
5. GCTAGTAAGA
6. AGGGGAGTCG

[0.974, 0.989, 0.982, 0.987, 1.01, 0.987]

* * *

- Tested on: ATP;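 also: ATP exposure 15 min at 22 °C before imaging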
- assayNotes: switch fluorescence ratio, 500 uM ATP over buffer (Cy3 cluster intensity, sum of 5 cycles each) (fold (ratio)); higher = stronger signal-on switching upon ATP binding; sequences stand for … in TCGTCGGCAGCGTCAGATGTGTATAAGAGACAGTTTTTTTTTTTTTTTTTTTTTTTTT…TC
- cond: aptamer strand: ATP DNA aptamer (quencher-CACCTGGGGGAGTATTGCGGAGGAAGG + anchor), 100 nM annealed; ATP concentration: 500 uM
measuredMetric: switch fluorescence ratio

residuesequence=AAAAGGTGTA systemundertest=ATP measuredmetric="switch fluorescence ratio" recordedmeasurement=0.99
residuesequence=TTCAAATATA systemundertest=ATP measuredmetric="switch fluorescence ratio" recordedmeasurement=1

Give measured switch fluorescence ratio for every item shown.
1. CATTACTTTT
2. GTGTTAAGGA

1. 1.01
2. 0.995

Please go through the list and note switch fluorescence ratio for each sequence.
1. TTGCTCAACT
2. GGGTATCCGT
3. TACAAATCTA
4. CGTGAGTTGG
5. ACGTGTTTGT
6. TAATCATGGT
7. TTGGGGTATA
8. AATGCTTAGA

[1, 0.979, 1, 0.992, 1.03, 0.969, 1.03, 0.985]

Record switch fluorescence ratio for all entries; do not skip any.
1. AGGGGTCGCG
2. TAACGTAGGA
3. CTAGTATGGA
4. GCCATAATAT

1: 0.981; 2: 1.07; 3: 1.02; 4: 1.01

* * *

- System: ATP;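 also: ATP exposure 15 min at 22 °C before imaging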
- assayNotes: switch fluorescence ratio, 500 uM ATP over buffer (Cy3 cluster intensity, sum of 5 cycles each) (fold (ratio)); higher = stronger signal-on switching upon ATP binding; sequences stand for … in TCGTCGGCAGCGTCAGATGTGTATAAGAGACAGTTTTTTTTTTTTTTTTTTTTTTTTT…TC
- cond: aptamer strand: ATP DNA aptamer (quencher-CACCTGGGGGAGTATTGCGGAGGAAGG + anchor), 100 nM annealed; ATP concentration: 500 uM
Provide the reported switch fluorescence ratio of each item.
Numbers only.

residuesequence=GTGTTTGGGA measuredmetric="switch fluorescence ratio" recordedmeasurement=0.997
residuesequence=GTTTTCAGGG measuredmetric="switch fluorescence ratio" recordedmeasurement=1.02
residuesequence=GGATTAGGGC measuredmetric="switch fluorescence ratio" recordedmeasurement=1.02
residuesequence=GGTGCATGTG measuredmetric="switch fluorescence ratio" recordedmeasurement=0.971

Provide the reported switch fluorescence ratio of each entry below, same order.
1. GATGGGGGTG
2. TCTTATTGG
3. AAGTTTACAT
4. AGGAAGTGTG
5. TGTTTTTTAT

[1.02, 1.02, 1.01, 0.987, 1.02]
